- target: human mGlu4 receptor (Homo sapiens (Human))
- Sequence (Q14833 33-912): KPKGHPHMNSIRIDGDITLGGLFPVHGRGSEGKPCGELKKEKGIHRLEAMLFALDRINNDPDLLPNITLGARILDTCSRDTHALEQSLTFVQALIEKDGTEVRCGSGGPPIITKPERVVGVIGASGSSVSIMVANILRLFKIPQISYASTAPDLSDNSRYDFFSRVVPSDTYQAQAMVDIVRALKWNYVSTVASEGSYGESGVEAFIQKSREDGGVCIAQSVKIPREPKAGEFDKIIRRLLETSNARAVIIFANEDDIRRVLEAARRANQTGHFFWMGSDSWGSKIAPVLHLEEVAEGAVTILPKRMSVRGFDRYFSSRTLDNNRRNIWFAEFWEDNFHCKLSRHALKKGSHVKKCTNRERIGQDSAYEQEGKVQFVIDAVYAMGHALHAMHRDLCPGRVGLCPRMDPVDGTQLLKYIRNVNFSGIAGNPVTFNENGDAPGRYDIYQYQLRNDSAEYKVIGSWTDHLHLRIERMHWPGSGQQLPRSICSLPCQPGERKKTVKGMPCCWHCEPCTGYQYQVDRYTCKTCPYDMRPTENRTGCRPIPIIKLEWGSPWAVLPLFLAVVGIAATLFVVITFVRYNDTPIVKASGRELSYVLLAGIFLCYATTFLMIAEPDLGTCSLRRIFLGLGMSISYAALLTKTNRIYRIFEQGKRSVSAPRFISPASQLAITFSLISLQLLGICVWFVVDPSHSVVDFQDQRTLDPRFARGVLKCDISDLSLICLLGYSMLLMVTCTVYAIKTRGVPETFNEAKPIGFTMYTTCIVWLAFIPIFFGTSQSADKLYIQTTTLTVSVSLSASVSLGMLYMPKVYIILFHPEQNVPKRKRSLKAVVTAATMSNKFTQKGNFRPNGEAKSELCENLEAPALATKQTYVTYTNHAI
- test: Ca2+ mobilization in vitro assay on recombinant human mGlu4 expressed in HEK293 cells (PAM)
- Format: cell-based
- measurement_conditions: HEK293; maximal response in % of maximal stimulatory effect of saturating L-AP4; read-out: Eff. (%)
Please respond with reported Emax for every item in the list.
Give the value, in units of %, as a plain number.

For reference, reported Emax for Cn1cc(CN2CCN3C(=O)N(c4c(F)cc(C#Cc5ccccc5)cc4F)C(=O)CC3(C)C2=O)cn1 (racemic) stands at 151

Summary for this molecule, C[C@@]12CC(=O)N(c3c(F)cc(C#Cc4ccccc4)cc3F)C(=O)N1CCN(c1ccncn1)C2=O : Emax is 136

Summary for this molecule, Cc1cccc(N2CCN3C(=O)N(c4c(F)cc(C#Cc5ccccc5)cc4F)C(=O)CC3(C)C2=O)n1 (racemic) : Emax is 127

Per the records, this molecule ( Cn1cc(N2CCN3C(=O)N(c4c(F)cc(C#Cc5ccccc5)cc4F)C(=O)C[C@@]3(C)C2=O)ccc1=O ) has Emax equal to 103

Reported Emax of C[C@@]12CC(=O)N(c3c(F)cc(C#Cc4ccccc4)cc3F)C(=O)N1CCN(c1ccnnc1)C2=O : 133

Per the records, this molecule ( CC12CC(=O)N(c3ccc(C#Cc4ccccc4)cc3F)C(=O)N1CCN(c1cccnc1)C2=O (racemic) ) has Emax equal to 103

For record C[C@@]12CC(=O)N(c3c(F)cc(C#Cc4ccccc4)cc3F)C(=O)N1CCN(c1ccnc(Cl)c1)C2=O the listed Emax is 100

# molecule C[C@@]12CC(=O)N(c3c(F)cc(C#Cc4ccccc4)cc3F)C(=O)N1CCN(c1cnc(OCc3ccccc3)cn1)C2=O ; its Emax = 122

Field Emax (entry Cc1ccnc(N2CCN3C(=O)N(c4c(F)cc(C#Cc5ccccc5)cc4F)C(=O)CC3(C)C2=O)c1 (racemic) ) reads 126

# Emax (molecule: CC12CC(=O)N(c3c(F)cc(C#Cc4ccccc4)cc3F)C(=O)N1CCN(Cc1ccncn1)C2=O (racemic) ) is 96

The measured Emax associated with C[C@@]12CC(=O)N(c3c(F)cc(C#Cc4ccccc4)cc3F)C(=O)N1CCN(c1ccncc1)C2=O reads 85

Record CC12CC(=O)N(c3c(F)cc(C#Cc4ccccc4)cc3Cl)C(=O)N1CCN(c1ccccn1)C2=O (racemic) . Reported Emax: 150

# molecule C[C@@]12CC(=O)N(c3c(F)cc(C#Cc4ccccc4)cc3F)C(=O)N1CCN(CCn1ccnc1)C2=O ; its Emax = 135

In plain terms, Cc1cc(N2CCN3C(=O)N(c4c(F)cc(C#Cc5ccccc5)cc4F)C(=O)CC3(C)C2=O)n(C)n1 (racemic) has a documented Emax of 142
